- experimental-details: NCI Yeast Anticancer Drug Screen. Data for the rad50 strain (AID 155);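 further: 0% = growth of vehicle-only cultures of the same strain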
- test-parameters: S. cerevisiae rad50 strain growth inhibition; at 50.0 µM unless noted
About 79,000 compounds went through this panel and 15% of them were active in at least one assay; those are over-represented in the sample as a whole. Activity calls are given as the source filed them. No stated cut-off is given here; in the data, active means growth inhibition above about 70%; inactive means the rest.
Field 'call' accepts 1 = active, 0 = inactive

Worked set:
[
  {
    "molecule": "COc1cccc(C)c1C(=O)O",
    "qualitative-label": 0
  },
  {
    "molecule": "O=C(CCCC(=O)N/N=C/c1ccccc1O)N/N=C\\c1ccccc1O",
    "qualitative-label": 0
  },
  {
    "molecule": "CC1(C)SC(c2ccccc2)SC(c2ccccc2)S1 (stereo not drawn)",
    "qualitative-label": 0
  },
  {
    "molecule": "COc1c(O)cc2c(c1O)C1OC(CO)C(O)C(O)C1OC2=O (stereo not drawn)",
    "qualitative-label": 0
  },
  {
    "molecule": "CC(=O)O[C@@H]1C(=O)C=C(C)[C@@H]2[C@@H](OC(=O)C=C(C)C)[C@H]3OC(=O)C[C@H]4[C@@H](C)[C@@H](O)[C@]5(O)OC[C@]34[C@H]5[C@@]12C",
    "qualitative-label": 1
  },
  {
    "molecule": "COC(=O)c1cc(C(=O)OC)c(CC(=O)C(=O)NC2C3CC4CC(C3)CC2C4)nc1CC(=O)C(=O)NC1C2CC3CC(C2)CC1C3 (stereo not drawn)",
    "qualitative-label": 0
  },
  {
    "molecule": "COC1=C2C[C@H](C)C[C@H](OC)[C@H](O)[C@@H](C)/C=C(\\C)[C@H](OC(N)=O)[C@H](OC)/C=C\\C=C(/C)C(=O)NC(=C(/C=N/N3CCN(C)CC3)C1=O)C2=O",
    "qualitative-label": 0
  },
  {
    "molecule": "C=C1C[C@@H](O)C[C@@]2(C)C[C@@H]3OC(=O)C(=C)[C@@H]3C[C@H]12",
    "qualitative-label": 0
  },
  {
    "molecule": "CC(=O)CCn1[nH]c(=O)c2ccccc2c1=O",
    "qualitative-label": 0
  },
  {
    "molecule": "NC(=O)c1ccc[n+]([O-])c1",
    "qualitative-label": 0
  }
]

-- ask Fill in: this test's call for Cc1cc(C)c2c(=O)n(-c3ccccc3C)c(=S)n(-c3ccccc3C)c2n1 is ___
-- reply 0

-- ask Please share the test call associated with Cc1ccc(S(=O)(=O)OC2CCN(C)CC2)cc1 .
-- reply 0

###

- experimental-details: NCI Yeast Anticancer Drug Screen. Data for the rad50 strain (AID 155);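 further: 0% = growth of vehicle-only cultures of the same strain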
- test-parameters: S. cerevisiae rad50 strain growth inhibition, hits give high values; at 50.0 µM unless noted
Compounds without any hit were thinned out: in the full panel of roughly 79,000, 15% have a hit. Active and inactive are the calls of the source. No stated cut-off is given here; in the data, active means growth inhibition above about 70%; inactive means the rest.
assay-metric: growth inhibition

[
  {
    "compound": "CC1(C)OC2C(/C=C\\C(=O)c3ccccc3)OC(n3ccc(=O)[nH]c3=O)C2O1 (centres undefined)",
    "growth inhibition": "-36.6% (inactive)"
  },
  {
    "compound": "O=C1CN(CCc2ccccc2)CC(=O)N2C(c3ccccc3)CCCN12 (centres undefined)",
    "growth inhibition": "62.7% (inactive)"
  },
  {
    "compound": "CN(C)c1cccc2ccccc12",
    "growth inhibition": "-1.25% (inactive)"
  },
  {
    "compound": "Clc1ccc(/C=C/c2nc(Cl)c(-c3ccc(Cl)cc3)c(Cl)n2)cc1",
    "growth inhibition": "-15.2% (inactive)"
  },
  {
    "compound": "Cc1c2ccccc2nc(CS(C)(=O)=O)[n+]1[O-]",
    "growth inhibition": "-16.9% (inactive)"
  }
]

-- ask Name the recorded growth inhibition for Clc1ccc(-c2c(C3=NCCCN3)nnn2-c2ccc(Cl)cc2)cc1 .
-- reply -16.6% (inactive)

-- ask Form field: reported growth inhibition of CC(=O)O[C@H]1C(=O)[C@@]2(C)C(C(OC(=O)c3ccccc3)[C@]3(O)CC(OC(=O)[C@H](OC(=O)CCC(=O)O)C(NC(=O)c4ccccc4)c4ccccc4)C(C)=C1C3(C)C)C1(OC(C)=O)COC1C[C@@H]2OC(=O)CCC(=O)O (some centres undefined)
-- reply 29.6% (inactive)

-- ask Look up growth inhibition: Cc1cc2cc3c(=O)[nH]c(=O)[nH]c3nc2cc1C
-- reply -11.7% (inactive)

-- ask Would you kindly share the measured growth inhibition for CC(O)CNC(=O)C(C)(C)O (centres undefined) ?
-- reply 36% (inactive)

-- ask growth inhibition for Cc1cn(C2CC3C(COC(c4ccccc4)N3O)O2)c(=O)[nH]c1=O (centres undefined) ?
-- reply 0.1% (inactive)

-- ask growth inhibition for CCOC(=O)c1ccc(N=C2S/C(=C\C(=S)Nc3ccccc3)N(c3ccccc3)C2=Nc2ccc(C(=O)OCC)cc2)cc1 ?
-- reply 14.3% (inactive)

-- ask growth inhibition for CC1CC(C)OC(c2ccc(Cl)cc2)O1 (centres undefined) ?
-- reply 20.8% (inactive)

-- ask Return reported growth inhibition; argument: c1cnc2c(c1)Oc1nc3ccccc3nc1S2
-- reply 2.25% (inactive)

-- ask Query: growth inhibition; subject: CS(=O)(=O)c1cccc(C(=O)O)c1
-- reply 12.4% (inactive)

Source listed as PubChem BioAssay (NCI).
